Assign kcat/Km to each entry below.
Substrate: O=CC=O
Experiment: purified protein
Assay type: biochemical, Arabidopsis thaliana
Settings: true substrate is the hemithioacetal of GO and GSH (preformed 30 min; HTA concentration calculated with Kdiss 3.0 mM), 1.7 mM GSH, 0.5 mM Mn2+, 100 mM MOPS pH 7.0, 25 °C
Give just the numeric value; M⁻¹ s⁻¹ need not be written.

Note down kcat/Km recorded for GLXI;2 (Col-0 GLXI;2) (Arabidopsis thaliana; K229N) (protein, monomer; two domains, active site 2 (His89, Glu137, Gln150, Glu201)) MAEASDLLEWPKKDNRRFLHVVYRVGDLDRTIEFYTEVFGMKLLRKRDIPEEKYSNAFLGFGPETSNFVVELTYNYGVSSYDIGTGFGHFAISTQDVSKLVENVRAKGGNVTREPGPVKGGGSVIAFVKDPDGYTFELIQRGPTPEPFCQVMLRVGDLDRAIKFYEKALGMRLLRKIERPEYKYTIGMMGYAEEYESIVLELTYNYDVTEYTKGNAYAQIAIGTDDVYNSGEVIKIVNQELGGKITREAGPLPGLGTKIVSFLDPDGWKTVLVDNKDFLKELE
6500

Tell me kcat/Km reported for GLXI;2 (Col-0 GLXI;2) (Arabidopsis thaliana; F278I) (protein, monomer; two domains, active site 2 (His89, Glu137, Gln150, Glu201)) MAEASDLLEWPKKDNRRFLHVVYRVGDLDRTIEFYTEVFGMKLLRKRDIPEEKYSNAFLGFGPETSNFVVELTYNYGVSSYDIGTGFGHFAISTQDVSKLVENVRAKGGNVTREPGPVKGGGSVIAFVKDPDGYTFELIQRGPTPEPFCQVMLRVGDLDRAIKFYEKALGMRLLRKIERPEYKYTIGMMGYAEEYESIVLELTYNYDVTEYTKGNAYAQIAIGTDDVYKSGEVIKIVNQELGGKITREAGPLPGLGTKIVSFLDPDGWKTVLVDNKDILKELE
6200

Give the reported value of kcat/Km for this record: GLXI;2 (Col-0 GLXI;2) (Arabidopsis thaliana; F278I/K229N) (protein, monomer; two domains, active site 2 (His89, Glu137, Gln150, Glu201)) MAEASDLLEWPKKDNRRFLHVVYRVGDLDRTIEFYTEVFGMKLLRKRDIPEEKYSNAFLGFGPETSNFVVELTYNYGVSSYDIGTGFGHFAISTQDVSKLVENVRAKGGNVTREPGPVKGGGSVIAFVKDPDGYTFELIQRGPTPEPFCQVMLRVGDLDRAIKFYEKALGMRLLRKIERPEYKYTIGMMGYAEEYESIVLELTYNYDVTEYTKGNAYAQIAIGTDDVYNSGEVIKIVNQELGGKITREAGPLPGLGTKIVSFLDPDGWKTVLVDNKDILKELE
6700
